# MEASUREMENT_NOTES: qHTS assay to identify small molecule agonists of the farnesoid-X-receptor (FXR) signaling pathway - cell viability counter screen (AID 743218); further: nearly all actives have a fitted effect of over 45% in size
# TEST_SETTINGS: FXR-bla HEK293T viability, CellTiter-Glo luminescence, 16 h; series mostly up to 62.6 µM
Results filed as inconclusive are left out. The source made the active and inactive calls. The call rests on the fitted dose curve; in most records, active means well fitted cell-killing curve with a large enough effect in the repeat runs; inconclusive means weak or mixed curves, or effect the other way; inactive means no such curve, though single readings can be large or run the other way.
READOUT_NAME: outcome

Answered cases to consult:
Param item = Clc1ccc(C(Cl)(Cl)Cl)cc1 ; retrieve measured outcome.
inactive

Param item = C=CC(Cl)CCl (configuration not stated) ; retrieve measured outcome.
inactive

Param item = CCCCOC(=O)COC(=O)c1ccccc1C(=O)OCCCC ; retrieve measured outcome.
inactive

Param item = N#Cc1nn(-c2c(Cl)cc(C(F)(F)F)cc2Cl)c(N)c1S(=O)C(F)(F)F (configuration not stated) ; retrieve measured outcome.
inactive

Param item = O=[N+]([O-])/N=C1\NCCN1Cc1ccc(Cl)nc1 ; retrieve measured outcome.
inactive

Param item = ClCC(Cl)CCl ; retrieve measured outcome.
inactive

Turning now to a further record.
Param item = Clc1cccc(C(Cl)(Cl)Cl)n1 ; retrieve measured outcome.
inactive

###

# MEASUREMENT_NOTES: A CellTox Green Cytotoxicity Assay to monitor cytotoxicity in HepG2 cells - 32 hour (AID 1224883); further: nearly all actives have a fitted effect of over 50% in size
# TEST_SETTINGS: CellTox Green fluorescence; series mostly up to 76.8 µM
Results filed as inconclusive are left out. Calls of active or inactive are those of the source. Calls follow the shape of the dose curve; as a rule, active = well fitted activation curve with a large enough effect in the repeat runs; inconclusive = weak or mixed curves; inactive = flat fitted curve, though single readings scatter.
Classes to choose from: T (active), F (inactive)

Would you mind telling me which call this test gave C[N+](C)(C)C ?
F

Would you mind telling me which call this test gave CC(C)CON=O ?
F

Would you mind telling me which call this test gave C=CC(Cl)CCl (configuration not stated) ?
F

Continuing:
Would you mind telling me which call this test gave c1ccc2c(c1)Nc1ccccc1S2 ?
F

Would you mind telling me which call this test gave CC1=C(C(=O)Nc2ccccc2)SCCO1 ?
F

Would you mind telling me which call this test gave C=CC(=O)OCC(CC)(COC(=O)C=C)COC(=O)C=C ?
T

###

# MEASUREMENT_NOTES: qHTS assay to identify small molecule agonists of the retinoic acid receptor (RAR) signaling pathway (AID 1159553)
# TEST_SETTINGS: C3RL4 RARE luciferase reporter, agonist, 6 h
Results filed as inconclusive are left out. Activity calls are given as the source filed them. Calls follow the shape of the dose curve; as a rule, active = well fitted activation curve with a large enough effect in the repeat runs; inconclusive = weak or mixed curves, or effect the other way; inactive = no such curve, though single readings can be large or run the other way.
Classes to choose from: active, inactive

Would you mind telling me which call this test gave Nc1ccc2ccccc2c1 ?
active

Would you mind telling me which call this test gave COC(=O)Nc1nc2ccccc2[nH]1 ?
inactive

Would you mind telling me which call this test gave CCC(=O)Nc1ccc(Cl)c(Cl)c1 ?
inactive

Would you mind telling me which call this test gave CC1CC(=O)O1 (stereo not given) ?
inactive

Continuing:
Would you mind telling me which call this test gave CC1=C(C(=O)Nc2ccccc2)SCCO1 ?
active

Would you mind telling me which call this test gave CCOP(=S)(OCC)SCn1c(=O)oc2cc(Cl)ccc21 ?
inactive

Would you mind telling me which call this test gave O=C(O)c1nn(Cc2ccc(Cl)cc2Cl)c2ccccc12 ?
inactive

Would you mind telling me which call this test gave C[C@]12CCC(=O)C=C1CC[C@@H]1[C@@H]2CC[C@@]2(C)[C@H]1CC[C@]2(C)O ?
inactive

Would you mind telling me which call this test gave CCCCC(C#N)(Cn1cncn1)c1ccc(Cl)cc1 (stereo not given) ?
inactive

Would you mind telling me which call this test gave CC(C)CON=O ?
inactive

Would you mind telling me which call this test gave O=[N+]([O-])c1ccc(Nc2ccccc2)cc1 ?
inactive

Would you mind telling me which call this test gave CCCCCCCCCc1ccc(O)cc1 ?
active

Would you mind telling me which call this test gave CCCCCCCCCCCCCl ?
inactive

Would you mind telling me which call this test gave COc1ccc(O)c(C(C)(C)C)c1 ?
inactive

Would you mind telling me which call this test gave CCOP(=S)(OCC)OP(=S)(OCC)OCC ?
inactive

Would you mind telling me which call this test gave Oc1ccc(Cl)cc1Cc1ccccc1 ?
inactive

Would you mind telling me which call this test gave C=C(C)C#N ?
inactive

Would you mind telling me which call this test gave CC(C)(O)C#N ?
inactive

Would you mind telling me which call this test gave C[C@]12CC[C@H]3[C@@H](CCC4=CC(=O)CC[C@@H]43)[C@@H]1CC[C@@H]2O ?
inactive

Would you mind telling me which call this test gave CCCCOC(=O)COC(=O)c1ccccc1C(=O)OCCCC ?
inactive

Would you mind telling me which call this test gave OCCOCCO ?
inactive

Would you mind telling me which call this test gave CC1(C)Cc2cccc(O)c2O1 ?
inactive

Would you mind telling me which call this test gave O=C1CCCO1 ?
inactive

Reference source: PubChem BioAssay (Tox21)
